- Assay target: KRAS G12C (Homo sapiens (Human), UniProt P01116, G12C)
- Sequence (P01116 other isoform, or with tags, fused parts or gaps G12C): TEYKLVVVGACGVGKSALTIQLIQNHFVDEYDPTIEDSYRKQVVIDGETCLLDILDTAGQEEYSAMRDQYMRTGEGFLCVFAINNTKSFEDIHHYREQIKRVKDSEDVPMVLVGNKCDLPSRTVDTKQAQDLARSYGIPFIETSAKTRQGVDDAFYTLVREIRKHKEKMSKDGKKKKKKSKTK
- Method notes: SPR binding affinity and kinetics, GTPγS-loaded KRAS G12C
- Assay conditions: GTPγS loaded protein, geomean
Property measured: Kd (nM)

Compound: C=C1CN2CCC[C@@]2(COc2nc3c4c(nc(-c5c(C)c(Cl)cc6[nH]ncc56)c(F)c4n2)OC[C@@H]2COCCCN32)C1 [Example 7]
Kd / nM: 15

1. CN(C)C(=O)/C=C1\CN2CCC[C@@]2(COc2nc3c4c(nc(-c5c(C6CC6)c(Cl)cc6[nH]ncc56)c(F)c4n2)OC[C@@H]2COCCCN32)C1 [Example 43]
2. Fc1c(-c2c(C3CC3)c(Cl)cc3[nH]ncc23)nc2c3c(nc(OC[C@@]45CCCN4CC(=C4COC4)C5)nc13)N1CCCOC[C@H]1CO2 [Example 41]
3. C=C1CN2C[C@H](O)C[C@@]2(COc2nc3c4c(nc(-c5c(C6CC6)c(Cl)cc6[nH]ncc56)c(F)c4n2)OC[C@@H]2COCCCN32)C1 [Example 25]
Query string: Hello, I need these entries ordered by Kd, highest reading first. Thanks! Return value: ordered labels per request.
Result string: 1, 2, 3

I. C=C1CN2CCC[C@@]2(COc2nc3c4c(nc(-c5c(Cl)c(Cl)cc6[nH]ncc56)c(F)c4n2)OC[C@@H]2COCCCN32)C1 [Example 11]
II. C=C1CN2CCC[C@@]2(COc2nc3c4c(nc(-c5c(C(F)F)ccc6[nH]ncc56)c(F)c4n2)OC[C@@H]2COCCCN32)C1 [Example 10]
Query string: Which one would you say has the larger Kd value: I , or II ? Indicate your choice by writing its label.
Result string: II

A. C=C1CN2CCC[C@@]2(COc2nc3c4c(nc(-c5c(C6CC6)ccc6[nH]ncc56)c(F)c4n2)OC[C@@H]2COCCCN32)C1 [Example 20]
B. C=C1CN2CCC[C@@]2(COc2nc3c4c(nc(-c5c([C@H]6C[C@H]6C)c(Cl)cc6[nH]ncc56)c(F)c4n2)OC[C@@H]2COCCCN32)C1 (single isomer, unassigned) [Example 31]
Query string: Lower Kd: A or B ? I would appreciate it if you answered with the label of your choice.
Result string: B
(B: 7 nM, A: 31 nM)

a. C/C=C1\CN2CCC[C@@]2(COc2nc3c4c(nc(-c5c(C6CC6)c(Cl)cc6[nH]ncc56)c(F)c4n2)OC[C@@H]2COCCCN32)C1 [Example 26]
b. C=C1CN2CC(F)C[C@@]2(COc2nc3c4c(nc(-c5c(C6CC6)c(Cl)cc6[nH]ncc56)c(F)c4n2)OC[C@@H]2COCCCN32)C1 (stereo partly shown) [Example 14]
Query string: Select one: a or b . Criterion: greater recorded Kd. Give the label under which the chosen entry appears.
Result string: b

###

- Assay target: KRAS G12D (Homo sapiens (Human), UniProt P01116, G12D)
- Sequence (P01116 other isoform, or with tags, fused parts or gaps G12D): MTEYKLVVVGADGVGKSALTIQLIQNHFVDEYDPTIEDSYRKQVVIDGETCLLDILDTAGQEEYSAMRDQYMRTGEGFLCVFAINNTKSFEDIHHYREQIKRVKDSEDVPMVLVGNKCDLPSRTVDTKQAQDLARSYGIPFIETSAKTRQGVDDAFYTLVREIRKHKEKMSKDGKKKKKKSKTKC
- Method notes: SPR binding affinity and kinetics, GDP-loaded KRAS G12D
- Assay conditions: GDP loaded protein, geomean
Property measured: Kd (nM)

Reference set (2 entries):
Compound: C=C1CN2CCC[C@@]2(COc2nc3c4c(nc(-c5c(Cl)ccc6[nH]ncc56)c(F)c4n2)OC[C@@H]2COCCCN32)C1 [Example 6]
Measurement unit: nM
Kd: 0.956
--
Compound: Fc1c(-c2c(Cl)c(Cl)cc3[nH]ncc23)nc2c3c(nc(OC[C@@]45CCCN4C[C@H](F)C5)nc13)N1CCCC[C@H]1CO2 [Example 4]
Measurement unit: nM
Kd: 1.36

I. C=C1CN2CCC[C@@]2(COc2nc3c4c(nc(-c5c(C(F)F)ccc6[nH]ncc56)c(F)c4n2)OC[C@@H]2COCCCN32)C1 [Example 10]
II. C=C1CN2CCC[C@@]2(COc2nc3c4c(nc(-c5c(C(F)(F)F)ccc6[nH]ncc56)c(F)c4n2)OC[C@@H]2COCCCN32)C1 [Example 12]
III. C=C1CN2CCC[C@@]2(COc2nc3c4c(nc(-c5c(C6CC6)c(Cl)cc6[nH]ncc56)c(F)c4n2)OC[C@@H]2COCCCN32)C1 [Example 2]
Query string: Please give the order of these compounds when sorted by Kd, largest value leading. State the ranking by listing the labels in the requested order.
Result string: I, II, III
(I: 2.07 nM, II: 0.116 nM, III: 0.041 nM)
